All figures here come from PubChem BioAssay (NCI).

System: HOP-92 NSCLC
Assay: NCI tumour cell line growth inhibition, 48 h
endpoint.label: TGI (µM)
Expressed in µM, but write only the number.

Some solved cases for reference:
- compound: "C=C1CCC(O)C/C1=C/C=C1\\CCCC2(C)C1CCC2C(C)CCCC(C)C (centres undefined)"
  target.or.test.system: "HOP-92 NSCLC"
  TGI / µM: 33
- compound: "COc1ccc(C(O)c2cc3c(N)c(C(=O)Nc4ccc(Br)cc4)sc3nc2C)cc1 (centres undefined)"
  target.or.test.system: "HOP-92 NSCLC"
  TGI / µM: 23
- compound: "O=C(C=P(c1ccccc1)(c1ccccc1)c1ccccc1)CC(=S)CC(=O)C=P(c1ccccc1)(c1ccccc1)c1ccccc1"
  target.or.test.system: "HOP-92 NSCLC"
  TGI / µM: 6.09

// next item, TGI requested
q: Which TGI is listed for Brc1ccc2c(C3CN[C@@H](c4c[nH]c5cc(Br)ccc45)CN3)c[nH]c2c1 (some centres undefined) ?
a: 9.29

----------
Tested on: 786-0 renal
Assay: NCI tumour cell line growth inhibition, 48 h
endpoint.label: TGI (µM)
Numeric only. Scale: µM

Answered cases to consult:
- compound: "COc1ccccc1N1CCN(CC(O)COc2c(Br)c(Br)c(Br)c3c2OC(C)(C)C3)CC1 (stereo not given)"
  target.or.test.system: "786-0 renal"
  numeric.result: 29.6
- compound: "O=C1C=C(Nc2ccc([N+](=O)[O-])cc2)c2ccccc2C1=O"
  target.or.test.system: "786-0 renal"
  numeric.result: 33.8
- compound: "CC(C)OC(=O)Nc1ccc(-c2nc(-c3cccc(OCCN4CCOCC4)c3)c(-c3ccnc(Br)c3)[nH]2)cc1"
  target.or.test.system: "786-0 renal"
  numeric.result: 3.54

# context switch: different compound, same TGI
q: Need TGI, item "Cc1cc2nc3c4cc(C=O)ccc4n(CCN(C)C)c3nc2cc1C"
a: 9.96

----------
System: MDA-MB-231 breast
Assay: NCI tumour cell line growth inhibition, 48 h
Listing of entries alongside the reported TGI.
Express it in µM; write the number only.

// solved cases for TGI follow
- compound: "Cc1c(C)c(S(=O)(=O)N(CCCCCCN)OCCCN)c(C)c2c1OC(C)(C)CC2"
  target.or.test.system: "MDA-MB-231 breast"
  endpoint.label: "TGI"
  numeric.result: 20.1
- compound: "CC1OC2=N[C@@H]1C(=O)N[C@@H](Cc1ccccc1)C1=N[C@H](C(=O)N[C@@H](Cc3ccccc3)C3=N[C@H](C(=O)N[C@H]2Cc2ccccc2)C(C)O3)C(C)O1 (stereo partly specified)"
  target.or.test.system: "MDA-MB-231 breast"
  endpoint.label: "TGI"
  numeric.result: 72
- compound: "O=C1Nc2ccc(Br)cc2C1=Nc1ccc2c(c1)OCO2"
  target.or.test.system: "MDA-MB-231 breast"
  endpoint.label: "TGI"
  numeric.result: 39.2
- compound: "COC(=O)c1c(O)c2c(c3c1OC(C)(C)CC3)OC(C)(C)CC2"
  target.or.test.system: "MDA-MB-231 breast"
  endpoint.label: "TGI"
  numeric.result: 30
- compound: "ClCc1nn(-c2ccccc2)c(CCl)c1CCl"
  target.or.test.system: "MDA-MB-231 breast"
  endpoint.label: "TGI"
  numeric.result: 12.1
- compound: "Clc1ccc(-c2ccc(CNCC3CCNCC3)o2)c(-c2ccccc2)c1"
  target.or.test.system: "MDA-MB-231 breast"
  endpoint.label: "TGI"
  numeric.result: 2.85
- compound: "Cc1cn(C2CC(Br)C(COC(c3ccccc3)(c3ccccc3)c3ccccc3)O2)c(=O)[nH]c1=O (stereo unspecified)"
  target.or.test.system: "MDA-MB-231 breast"
  endpoint.label: "TGI"
  numeric.result: 33.5
- compound: "COc1ccc(C(O)c2cc3c(N)c(C(=O)Nc4ccc(Br)cc4)sc3nc2C)cc1 (stereo unspecified)"
  target.or.test.system: "MDA-MB-231 breast"
  endpoint.label: "TGI"
  numeric.result: 16.9
- compound: "CCCCC1C=Cn2c(=O)oc3c(OC(C)C)c(OC(C)C)c(O)c1c32 (stereo unspecified)"
  target.or.test.system: "MDA-MB-231 breast"
  endpoint.label: "TGI"
  numeric.result: 33.1
- compound: "COC(=O)/C=C1/SC(=Nc2ccc(C(F)(F)F)cc2)N(CCc2c[nH]c3ccc(O)cc23)C1=O"
  target.or.test.system: "MDA-MB-231 breast"
  endpoint.label: "TGI"
  numeric.result: 4.67

Here is another compound to look at.
q: // lookup TGI | system=MDA-MB-231 breast | key= "CC[C@H](Nc1cc(C)nc(N)n1)c1nc2cccc(NCc3ccc(C(=O)NO)cc3)c2c(=O)n1-c1ccccc1"
a: 3.16
